Listed next: entries and their corresponding Abs 630 (100 nM).
Molecular target: T1, human IL-10 receptor (hIL-10R alpha and beta chains) on HEK-Blue IL-10 reporter cells (human, UniProt Q13651 22-578; Q08334 20-325)
T1 sequence 1: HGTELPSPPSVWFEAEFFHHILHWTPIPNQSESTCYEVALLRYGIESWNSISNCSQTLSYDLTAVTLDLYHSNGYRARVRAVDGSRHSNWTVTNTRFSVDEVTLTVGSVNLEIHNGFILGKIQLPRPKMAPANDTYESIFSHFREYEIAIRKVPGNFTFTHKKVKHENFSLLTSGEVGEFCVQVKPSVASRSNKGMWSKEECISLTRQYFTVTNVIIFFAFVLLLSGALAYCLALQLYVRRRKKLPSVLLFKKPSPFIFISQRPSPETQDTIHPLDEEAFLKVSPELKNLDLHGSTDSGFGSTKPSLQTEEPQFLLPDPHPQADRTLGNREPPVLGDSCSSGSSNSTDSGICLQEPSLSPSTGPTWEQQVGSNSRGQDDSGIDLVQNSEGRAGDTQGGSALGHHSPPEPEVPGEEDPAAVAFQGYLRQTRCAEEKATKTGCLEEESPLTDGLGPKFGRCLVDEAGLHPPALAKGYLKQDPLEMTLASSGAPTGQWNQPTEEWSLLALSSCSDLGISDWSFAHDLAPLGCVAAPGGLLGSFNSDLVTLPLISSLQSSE
T1 sequence 2: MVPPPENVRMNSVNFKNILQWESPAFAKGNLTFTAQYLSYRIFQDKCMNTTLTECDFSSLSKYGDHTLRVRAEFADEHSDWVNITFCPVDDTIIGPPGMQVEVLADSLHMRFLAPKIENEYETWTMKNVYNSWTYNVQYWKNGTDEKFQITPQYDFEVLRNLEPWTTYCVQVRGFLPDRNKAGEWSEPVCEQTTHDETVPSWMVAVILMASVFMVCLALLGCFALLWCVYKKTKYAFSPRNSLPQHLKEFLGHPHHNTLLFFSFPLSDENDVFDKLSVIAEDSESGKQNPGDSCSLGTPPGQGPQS
Experiment: cell-based or functional assay
# value in Abs 630; strip the unit string

| binder | output_unit | Abs 630 (100 nM) |
| --- | --- | --- |
| IL10R binding molecule of SEQ ID NO: 305 (bispecific antibody) QVQLQESGGGSVQAGGSLRLSCAASGYTYSSGCMGWFRQAPGKEREAVAAINSDGSTSYADSVKGRFTISKDNAKNTLYLQMNSLKPEDTAMYYCAAEPYCSGGYPRWSVAEFGYWGQGTQVTVSSGGGSQVQLQESGGGSVQAGGSLRLSCAASRYLYSIDYMAWFRQSPGKEREPVAVIYTASGATFYPDSVKGRFTISQDNAKMTVYLQMNSLKSEDTAMYYCAAVRKTDSYLFDAQSFTYWGQGTQVTVSSASHHHHHH | Abs 630 | 0.35 |

From here, focus on the item given below.
Request: Quick check: Abs 630 (100 nM) of IL10R binding molecule of SEQ ID NO: 287 (bispecific antibody) QVQLQESGGGSVQAGGSLRLSCTVSGYTYSSNCMGWFRQAPGKEREGVATIYTGGGNTYYADSVKGRFTISQDNAKNTVYLQMNNLKPEDTAMYYCAAEPLSRVYGGSCPTPTFDYWGQGTQVTVSSGGGSQVQLQESGGGSVQAGGSLRLSCTVSRYTASVNYMGWFRQAPGKEREGVATIFTGAGTTYYANSVKGRFTISRDNAKNTAYLQMNSLKPEDTAIYYCAVDFRGGLLYRPAYEYTYRGQGTQVTVSSASHHHHHH ?
Result: 0.51
